target: E. coli DNA gyrase (Escherichia coli, UniProt P0AES4+P0AES6); construct: purchased John Innes Enterprises Ltd. (John Innes Centre, UK); experiment: DNA gyrase inhibition assay (supercoiling); type: biochemical; settings: E. coli DNA gyrase supercoiling, visual inspection of gels; read-out: DNA Gyrase IC50 (converted)
property: IC50 (µM)
Answer with a number only, understood to be in µM.

Examples with their reported IC50 follow.
{"columns": ["compound", "systemName", "property", "unitName", "obsValue"],
 "data": [
  ["COc1ccc2nccc(-n3cc4c(n3)CCC(NCC(=O)Nc3cc(F)cc(F)c3)C4)c2n1 (centres unmarked)", "E. coli DNA gyrase (Escherichia coli, UniProt P0AES4+P0AES6)", "IC50", "µM", 2.15],
  ["COc1ccc2nccc(-n3cc4c(n3)CCC(NC(=O)/C=C/c3cccc(Cl)c3)C4)c2n1 (centres unmarked)", "E. coli DNA gyrase (Escherichia coli, UniProt P0AES4+P0AES6)", "IC50", "µM", 4.35],
  ["COc1ccc2nccc(-n3cc4c(n3)CCC(NC(=O)c3ccc5c(c3)NC(=O)CO5)C4)c2n1 (centres unmarked)", "E. coli DNA gyrase (Escherichia coli, UniProt P0AES4+P0AES6)", "IC50", "µM", 2.13]
]}

Find the measured IC50 of COc1ccc2nccc(-n3cc4c(n3)CCC(NCc3cc(F)c5c(c3)OCCO5)C4)c2n1 (centres unmarked) and report it.
0.542

Supply measured IC50 of COc1ccc2nccc(-n3cc4c(n3)CCC(NC(=O)c3cc5c(cc3Cl)SCC(=O)N5)C4)c2c1 (centres unmarked) in your reply.
0.962

Return IC50 (reported value) for this compound: COc1ccc2nccc(-n3cc4c(n3)CCC(NC(=O)c3ccc5c(c3)NC(=O)CS5)C4)c2c1 (centres unmarked)
0.247

The values you see were collected from patent US8242275B2.
